- Test system: HUVEC
- Assay Method Text: Binding of AP fusion proteins to the surface of HUVEC
- Parameters: species or system human
- Experimental Conditions: HUVEC (FIGS. 12, 15)
Measurement Kind: surface binding of AP fusion domains to HUVEC

Molecule: Ap-Nogo-B (61-200): AP fusion with amino acids 61-200 of Nogo-B (protein, left off: large carriers, AP fusion with amino acids 61-200 of Nogo-B) AGLSAAPVPTAPAAGAPLMDFGNDFVPPAPRGPLPAAPPVAPERQPSWDPSPVSSTVPAPSPLSAAAVSPSKLPEDDEPPARPPPPPPASVSPQAEPVWTPPAPAPAAPPSTPAAPKRRGSSGSVVVDLLYWRDIKKTGV
Measured Value: did
--
Molecule: AP-Am-Nogo-B: purified alkaline phosphatase (AP) fusion protein with residues 1-200 at the amino terminus of Nogo-B (protein, left off: small tags and cut ends; large carriers, purified alkaline phosphatase (AP) fusion protein with residues 1-200 at the amino terminus of Nogo-B) MEDLDQSPLVSSSDSPPRPQPAFKYQFVREPEDEEEEEEEEEEDEDEDLEELEVLERKPAAGLSAAPVPTAPAAGAPLMDFGNDFVPPAPRGPLPAAPPVAPERQPSWDPSPVSSTVPAPSPLSAAAVSPSKLPEDDEPPARPPPPPPASVSPQAEPVWTPPAPAPAAPPSTPAAPKRRGSSGSVVVDLLYWRDIKKTGV
Measured Value: did
